# EXPERIMENTAL_SYSTEM: human Flt-3 (Homo sapiens, UniProt P36888)
# Construct: fused to the N-terminus of the intracellular domain (583-953 amino acids) thereof; made in house; host or cells: insect cells (baculovirus)
# Sequence (P36888 583-953): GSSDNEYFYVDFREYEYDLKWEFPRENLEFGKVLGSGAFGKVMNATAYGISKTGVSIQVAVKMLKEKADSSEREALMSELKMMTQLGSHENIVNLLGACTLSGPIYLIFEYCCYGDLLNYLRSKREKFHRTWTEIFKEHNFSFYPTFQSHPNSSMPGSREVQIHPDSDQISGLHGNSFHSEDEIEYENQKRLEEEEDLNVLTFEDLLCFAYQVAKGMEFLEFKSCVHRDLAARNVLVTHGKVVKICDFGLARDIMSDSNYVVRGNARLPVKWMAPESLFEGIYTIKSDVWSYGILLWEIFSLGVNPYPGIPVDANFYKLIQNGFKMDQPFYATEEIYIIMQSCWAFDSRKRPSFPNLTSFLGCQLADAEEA
# METHOD: Inhibitory activity on Flt-3 (GST-fused kinase, time-resolved fluoroimmunoassay)
# Type: biochemical
# PARTICULARS: tested compound 10 μmol/L, ATP 10 μmol/L, sixty minutes
Counter-ions that a name gives are not always drawn.
Parameter: inhibition at 10 µM. Scope: all listed entries.
MEASUREMENT_NAME: inhibition at 10 µM (%)

COMPOUND	MEASUREMENT_NAME	VALUE
O=C(c1ccncc1)N1CCN(C(=O)c2ccc(/C=C/c3n[nH]c4ccccc34)cc2)CC1	inhibition at 10 µM	96.4
C(=C\c1n[nH]c2ccccc12)/c1ccc(OCCN2CCOCC2)cc1 [Compound 5, hydrochloride]	inhibition at 10 µM	93.3
O=C(c1ccc(/C=C/c2n[nH]c3ccccc23)cc1)N1CCNCC1	inhibition at 10 µM	94.2
C(=C\c1n[nH]c2ccccc12)/c1ccc(N2CCNCC2)cc1.Cl [Compound 53, hydrochloride]	inhibition at 10 µM	95.2
CN1CCC(C(=O)N2CCN(C(=O)c3ccc(/C=C/c4n[nH]c5ccccc45)cc3)CC2)CC1	inhibition at 10 µM	96.3
CS(=O)(=O)Nc1cc(/C=C/c2n[nH]c3ccccc23)ccc1OCCN1CCOCC1	inhibition at 10 µM	90.2
NC1CCN(C(=O)c2ccc(/C=C/c3n[nH]c4ccccc34)cc2)C1 (stereo not drawn) [Compound 71, dihydrochloride]	inhibition at 10 µM	95.2
COc1cc(/C=C/c2n[nH]c3ccccc23)ccc1OCCN1CCOCC1 [Compound 30, hydrochloride]	inhibition at 10 µM	98.1
COCC(=O)N1CCN(C(=O)c2ccc(/C=C/c3n[nH]c4ccccc34)cc2)CC1	inhibition at 10 µM	95.8
COc1cc(/C=C/c2n[nH]c3ccccc23)ccc1OCC(=O)N1CCOCC1	inhibition at 10 µM	93.8
N#Cc1cc(/C=C/c2n[nH]c3ccccc23)ccc1OCCN1CCOCC1	inhibition at 10 µM	94.5
O=C(c1ccc(/C=C/c2n[nH]c3ccccc23)cc1)N1CCN(C(=O)[C@H]2CCNC2)CC1 [Compound 72, dihydrochloride]	inhibition at 10 µM	95
CC(=O)N(C)CC(=O)N1CCN(C(=O)c2ccc(/C=C/c3n[nH]c4ccccc34)cc2)CC1	inhibition at 10 µM	95.1
CN(C)CCOc1ccc(/C=C/c2n[nH]c3ccccc23)cc1 [Compound 2, hydrochloride]	inhibition at 10 µM	97.8
O=C(c1ccc(/C=C/c2n[nH]c3ccccc23)cc1)N1CCN(C(=O)[C@@H]2CCCN2)CC1	inhibition at 10 µM	93.9
CC(C)(C)OC(=O)N1CCN(C(=O)c2ccc(/C=C/c3n[nH]c4ccccc34)cc2)CC1	inhibition at 10 µM	97.4
O=CN1CCN(C(=O)c2ccc(/C=C/c3n[nH]c4ccccc34)cc2)CC1	inhibition at 10 µM	94.4
O=C(NCCN1CCOCC1)c1ccc(/C=C/c2n[nH]c3ccccc23)cc1	inhibition at 10 µM	91
NC1CCN(C(=O)c2ccc(/C=C/c3n[nH]c4ccccc34)cc2)CC1	inhibition at 10 µM	95.7
Nc1cc(/C=C/c2n[nH]c3ccccc23)ccc1OCCN1CCOCC1	inhibition at 10 µM	99.2
CCN(CC)C(=O)c1ccc(/C=C/c2n[nH]c3ccccc23)cc1 [Compound 62, hydrochloride]	inhibition at 10 µM	93.7
